Target: Androgen Receptor (AR) in the LNCaP prostate carcinoma cell line (Homo sapiens, UniProt P10275, T878A)
Construct: cell based immuno-fluorescence assay using the LNCaP prostate epithelial cell line; host or cells: LNCaP clone FGC
Sequence (P10275 whole entry T878A): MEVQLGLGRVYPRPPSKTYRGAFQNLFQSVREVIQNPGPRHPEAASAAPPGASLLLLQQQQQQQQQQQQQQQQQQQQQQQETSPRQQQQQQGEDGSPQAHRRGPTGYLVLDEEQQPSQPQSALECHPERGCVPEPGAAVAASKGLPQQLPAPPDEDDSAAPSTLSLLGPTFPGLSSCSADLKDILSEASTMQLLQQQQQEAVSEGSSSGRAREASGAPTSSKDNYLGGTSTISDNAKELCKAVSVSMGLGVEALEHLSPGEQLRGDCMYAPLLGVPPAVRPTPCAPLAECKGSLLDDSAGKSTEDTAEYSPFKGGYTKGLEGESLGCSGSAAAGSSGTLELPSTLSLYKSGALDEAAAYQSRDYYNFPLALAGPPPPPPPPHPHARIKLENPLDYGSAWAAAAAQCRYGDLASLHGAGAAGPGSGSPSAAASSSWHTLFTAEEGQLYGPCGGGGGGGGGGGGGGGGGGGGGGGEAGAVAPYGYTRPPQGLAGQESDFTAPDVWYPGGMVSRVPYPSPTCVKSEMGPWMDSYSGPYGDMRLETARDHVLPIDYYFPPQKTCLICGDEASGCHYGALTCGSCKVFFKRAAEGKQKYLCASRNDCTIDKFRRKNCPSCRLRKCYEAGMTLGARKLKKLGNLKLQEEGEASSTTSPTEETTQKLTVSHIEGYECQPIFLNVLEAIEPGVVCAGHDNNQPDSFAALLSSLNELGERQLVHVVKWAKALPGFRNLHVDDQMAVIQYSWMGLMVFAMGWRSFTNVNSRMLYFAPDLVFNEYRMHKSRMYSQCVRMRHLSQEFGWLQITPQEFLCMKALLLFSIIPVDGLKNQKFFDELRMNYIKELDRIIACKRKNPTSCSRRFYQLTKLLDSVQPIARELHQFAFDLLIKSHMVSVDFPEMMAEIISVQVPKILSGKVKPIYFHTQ
Experiment: LNCaP Androgen Receptor Down-Regulation Cell Assay (immunofluorescence end point)
Assay type: cell-based
Conditions: LNCaP cells, compound incubation 20-22 hours, concentration giving 50% reduction of the AR signal
Description: The ability of compounds to reduce Androgen Receptor (AR) numbers was assessed in a cell based immuno-fluorescence assay using the LNCaP prostate epithelial cell line. This immunofluorescence end point assay measures the ability of a test compound to down-regulate and reduce measured levels of the AR in the LNCaP prostate carcinoma cell line (LNCaP clone FGC (CRL-1740) obtained from the American Type Culture Collection (ATCC)). […]
Please assign rule not met whenever IC50 is at or above 3 µM, and rule met whenever it is below.

chem-smiles: Fc1ccc2[nH]cc(CN3CCN(C4=Nn5c(nnc5C(F)(F)F)CC4)CC3)c2c1
label-value: rule not met

chem-smiles: CC(=O)N1CCN(CCOc2ccc(C3CCN(C4=Nn5c(nnc5C(F)(F)F)CC4)CC3)cc2)CC1
label-value: rule met

# input State whether 3 µM exceeds IC50 recorded for "FC(F)(F)c1ccn(CCOc2ccc(C3CCN(C4=Nn5c(nnc5C(F)(F)F)CC4)CC3)cc2)n1" .
# output rule met

# input State whether 3 µM exceeds IC50 recorded for "CC(=O)N1CCN(CCOc2ccc(C3CCN(C4=Nn5c(nnc5C(F)(F)F)CC4)CC3)cc2)C[C@H]1C" .
# output rule met

# input State whether 3 µM exceeds IC50 recorded for "CCCCC(=O)N1CCN(CCOc2ccc(N3CCN(C4=Nn5c(nnc5C(F)(F)F)CC4)CC3)cc2)CC1" .
# output rule not met

# input State whether 3 µM exceeds IC50 recorded for "CC(=O)N1CCN(CCOc2ccc(N3CCN(C4=Nn5c(nnc5C(F)(F)F)CC4)CC3)cc2)CC1" .
# output rule not met

Reference for the values: patent US8258140B2
